assay: Viability Counterscreen for CMV-Luciferase Assay of Inhibitors of ATXN expression; conditions: HEK-293 CMV-luciferase cells viability, protease fluorescence, 24 h; note: nearly all actives have a fitted effect of over 55% in size
Screen size: about 2,100 compounds; about 320 (15%) were called active. Roughly 52% stayed inconclusive and do not appear here. Calls come from the whole dose curve; as a rule, active = well fitted cell-killing curve with a large enough effect; inconclusive = small, poorly fitted or top-dose-only effect, or effect the other way; inactive = flat fitted curve, though single readings scatter. The list shows a part of the results.
Labels: Yes for active, No for inactive

# COMPOUND, CLASS
data = [
    ("CCc1ccc(CNC(=O)c2cc3c(C)nc4ccccc4c3o2)cc1", "No"),
    ("Cc1ccccc1N1CCN(Cc2c[nH]c3ccccc23)CC1", "No"),
    ("CC(=O)c1c(C)[nH]c(C(=O)Nc2nc(-c3ccc(-c4ccccc4)cc3)cs2)c1C", "Yes"),
    ("O=C(CN1C(=O)c2ccccc2S1(=O)=O)N1CCc2ccccc21", "No"),
    ("CCN(CC)S(=O)(=O)c1ccc(C)c(NC(=S)N2CCN(c3ccccn3)CC2)c1", "No"),
]

----------
assay: Viability Counterscreen for CMV-Luciferase Assay of Inhibitors of ATXN expression; conditions: HEK-293 CMV-luciferase cells viability, protease fluorescence, 24 h; note: nearly all actives have a fitted effect of over 55% in size
Out of some 2,100 compounds screened, about 320 (15%) were called active. Roughly 52% stayed inconclusive and do not appear here. Calls follow the shape of the dose curve; as a rule, active = well fitted cell-killing curve with a large enough effect; inconclusive = small, poorly fitted or top-dose-only effect, or effect the other way; inactive = flat fitted curve, though single readings scatter. The list shows a part of the results.
Labels: active, inactive

# MOLECULE, CLASS
measured = [
    ("Cc1ccc(S(=O)(=O)/C(=C/Cl)NC(=O)c2ccccc2)cc1", "active"),
    ("CCc1ccc(N(CC)C(=O)c2ccc3c(Cl)c4c(nc3c2)CCC4)cc1", "inactive"),
    ("O=C(Nc1cccc(S(=O)(=O)N2CCOCC2)c1)c1ccc2c(=O)n3c(nc2c1)CCCCC3", "inactive"),
    ("NC(=O)C1CCN(C2=C(Cl)C(=O)c3ccccc3C2=O)CC1", "inactive"),
    ("O=c1cnnc(N/N=C/c2ccccn2)[nH]1", "active"),
    ("Cc1ccc(C(=O)CN2C(=O)c3ccccc3S2(=O)=O)cc1", "inactive"),
    ("C(=N\\Nc1ccc2nncn2n1)/c1ccccn1", "active"),
    ("Cc1ccc(NC(=O)/C=C/c2ccc([N+](=O)[O-])s2)c(C)c1", "inactive"),
    ("Cc1ccc(C(=O)COC(=O)c2ccc3c(c2)C(=O)N(c2cccc4ncccc24)C3=O)cc1", "active"),
    ("O=C(N/N=C/c1ccc([N+](=O)[O-])s1)c1ccccc1Br", "active"),
    ("O=C(CNC(=O)c1ccccc1Br)N/N=C/c1cc(Br)ccc1O", "inactive"),
    ("Cc1sc2nc(CN3CCCC3)nc(N3CCC(C(N)=O)CC3)c2c1C", "inactive"),
    ("CC1CCC(CN2C(Nc3ccccc3)=NC[C@@H]2Cc2ccccc2)CC1 (stereo partly specified)", "inactive"),
    ("C(=N\\NC(=Nc1ccccc1)c1ccccn1)/c1ccccn1", "inactive"),
    ("CCN(CC)CCn1nc2c3c(cccc3c1=O)-c1ccccc1-2", "active"),
    ("CC1CCN(Cc2c(C(=O)N/N=C/c3cc(Cl)ccc3O)nnn2-c2nonc2N)CC1", "inactive"),
    ("Cc1ccc2nc(NC(=O)CSCC(=O)OCC(=O)c3ccc(Br)cc3)sc2c1", "inactive"),
    ("CCC1=C(OC(=O)N(CC)CC)N2C(=O)OC(=NCCc3c[nH]c4ccccc34)[C@]2(Cc2ccccc2)[C@H]2C1=CC[C@H]1C(=O)N(c3ccccc3)C(=O)[C@H]12", "inactive"),
    ("NC1=NC[C@H](Cc2ccccc2)N1CCCCC1CCCCC1", "inactive"),
    ("CN1CCN(c2nc(Nc3ccc(F)cc3)nc(Nc3ccc(F)cc3)n2)CC1", "inactive"),
    ("CCOC(=O)C1CCN(C(=O)c2c(C)oc3c2C(=O)c2ccccc2C3=O)CC1", "active"),
]

----------
experiment: Viability Counterscreen for CMV-Luciferase Assay of Inhibitors of ATXN expression; details: HEK-293 CMV-luciferase cells viability, protease fluorescence, 24 h; note: nearly all actives have a fitted effect of over 55% in size
Out of some 2,100 compounds screened, about 320 (15%) were called active. Another 52% or so got no clear call; they are omitted. Calls follow the shape of the dose curve; as a rule, active = well fitted cell-killing curve with a large enough effect; inconclusive = small, poorly fitted or top-dose-only effect, or effect the other way; inactive = flat fitted curve, though single readings scatter. The list shows a part of the results.
Classes used: label 1 = active, label 0 = inactive

# COMPOUND, CLASS
rows = [
    ("COc1ccc2c(-c3ccc(S(N)(=O)=O)cc3)c(-c3ccc(S(C)(=O)=O)cc3)sc2c1", "label 0"),
    ("CC(=O)C(C(C)=O)c1c(Cl)c(O)c(O)c2c(C(=O)c3ccccc3)coc12", "label 1"),
    ("N#Cc1c(NCCN)nc(-c2ccco2)c2c1CCCC2", "label 0"),
    ("O=C(CNC(=O)c1ccco1)N/N=C/c1cc(Br)ccc1O", "label 0"),
    ("CCc1nc2ccccc2c(C(=O)OCC(=O)Nc2ccc(NC(C)=O)cc2)c1C", "label 0"),
    ("Cc1ccc2nc3cc([N+](=O)[O-])cc([N+](=O)[O-])c3cc2c1", "label 1"),
    ("Cc1ccc(NC(=O)CCC(=O)c2cc(C)sc2C)nc1", "label 0"),
    ("O=c1cc(-c2c(F)c(F)c(F)c(F)c2F)oc2ccccc12", "label 0"),
    ("O=C(CC1Sc2ccccc2NC1=O)NNc1cccc(Cl)c1Cl (configuration not stated)", "label 0"),
    ("CCOc1ccc(C(=O)Nc2ccc(Cc3ccncc3)cc2)cc1Br", "label 0"),
    ("CCCCNC(=O)C1(C)CCCCN1Cc1ccccc1-c1ccccc1 (configuration not stated)", "label 0"),
    ("CCC(=O)NC(c1ccc(C)cc1)c1cc([N+](=O)[O-])c2cccnc2c1O (configuration not stated)", "label 1"),
    ("O=C(c1ccc(Cl)s1)N1CCN(c2nc3ccccc3s2)CC1", "label 0"),
    ("NC(=O)c1cccc(-c2ccnc3c2CC(C(=O)Nc2cccc(C(F)(F)F)c2)O3)c1 (configuration not stated)", "label 0"),
    ("CCC(=O)NC(C)c1cc(Cl)c2cccnc2c1O (configuration not stated)", "label 0"),
    ("CCN(c1ccccc1)S(=O)(=O)c1ccc(C(=O)N(CCCN(C)C)c2nc3c(C)cccc3s2)cc1", "label 1"),
    ("Cc1ccsc1/C=C/C1=Cc2c(sc(NC(=O)CSc3n[nH]c(N)n3)c2C#N)C(C)(C)C1", "label 0"),
    ("CCOC(=O)C(C(C)=O)c1c(Br)c(O)c(O)c2c(C(=O)c3ccc(C)cc3)coc12 (configuration not stated)", "label 1"),
    ("O=C(N/N=C1\\CCCc2c1[nH]c1ccc(Cl)cc21)c1ccncc1", "label 0"),
    ("CN(C)CCNc1cccc2sc3ccc(O)cc3c(=O)c12", "label 1"),
    ("COc1ccccc1Cc1c(-c2ccco2)nc2c(C)cc(Br)cn12", "label 1"),
    ("CN(C)CCNc1ccc2ncn3c4ccc(O)cc4c(=O)c1c23", "label 0"),
    ("COc1cc(Nc2ncc3c(n2)CCN(C(=O)Nc2ccc(C(C)C)cc2)C3)cc(OC)c1OC", "label 0"),
    ("Cc1cccc(N=C2NN=C(c3c(C)[nH]c4ccccc34)CS2)c1", "label 1"),
    ("Nc1ccn([C@@H]2O[C@H](CO)[C@@H](O)[C@@H]2O)c(=O)n1", "label 0"),
    ("O=C(Nc1cccc(Br)c1)Oc1cccc2cccnc12", "label 0"),
    ("CC(NC1=CC(=O)c2cccnc2C1=O)C(O)c1ccccc1 (configuration not stated)", "label 1"),
    ("CC(=O)NC(C)c1cc(Cl)c2cccnc2c1O (configuration not stated)", "label 0"),
    ("COc1ccc2c(c1)C(SCC(=O)NCCc1ccc(Cl)cc1)CC(C)(C)O2 (configuration not stated)", "label 0"),
    ("O=C(CNC(=O)c1ccccc1O)N/N=C/c1cc(Br)ccc1OC(=O)/C=C/c1ccco1", "label 0"),
    ("Cc1cc(C2=NNC(=NC3CC3)SC2)c(C)n1-c1ccccc1F", "label 0"),
    ("CN(CCc1ccccc1)c1cc2c(c3c1ccn3C)C1CCC2O1 (configuration not stated)", "label 0"),
    ("O=C(CN1c2cccc3cccc(c23)S1(=O)=O)NCc1ccc(Cl)cc1", "label 0"),
    ("N#Cc1c(Oc2ccc3ccccc3c2)sc(C(=O)c2ccccc2)c1N", "label 0"),
    ("Nc1c(C(=O)NCc2ccccc2)c2nc3ccccc3nc2n1-c1ccc2c(c1)OCO2", "label 0"),
    ("O=C1c2cccc3cc([N+](=O)[O-])cc(c23)C(=O)N1CCN1CCCC1", "label 1"),
    ("CC(C)C(=O)NC(c1ccccc1)c1cc([N+](=O)[O-])c2cccnc2c1O (configuration not stated)", "label 1"),
    ("CC[C@]12c3[nH]c4ccc(Cl)cc4c3CCN1C(=O)[C@@H](CC(=O)NCC13CC4CC(CC(C4)C1)C3)C[C@@H]2C(=O)N1CCN(C(=O)c2ccco2)CC1", "label 1"),
    ("CC1(C)c2[nH]c3ccccc3c2C[C@H]2C(=O)N(Cc3ccccc3F)C(=O)N21", "label 0"),
    ("CN(CCOc1ccc(Br)cc1)CC(O)COc1ccc(C#N)cc1 (configuration not stated)", "label 0"),
    ("CS(=O)(=O)Nc1cccc(NC(=O)c2cccc3c(-c4cccc(C(N)=O)c4)coc23)c1", "label 1"),
    ("CCCCC(=O)NC(c1ccco1)c1cc(Cl)c2cccnc2c1O (configuration not stated)", "label 0"),
]
